- Test target: Aldo-keto reductase family 1 member B1 (Rattus norvegicus) (UniProt P07943)
- Measurement description: Selectivity as ratio of IC50 for rat lens and kidney […]
Please respond with 1.0 when measured Selectivity quotient is strictly beneath 2, and with 0.0 in all other cases.

The examples below pair each entry with its known result.
>>> class("O=C1CC2(c3cc(F)ccc3-c3ccc(F)cc32)S(=O)(=O)N1")
1.0
>>> class("O=C(O)Cc1nn(Cc2ccc(Br)cc2F)c(=O)c2ccccc12")
1.0
>>> class("O=C1NS(=O)(=O)CC12c1ccccc1-c1ccc(F)cc12 (stereo unspecified)")
0.0
>>> class("O=C1CC2(C(=O)N1)c1cc(F)ccc1-c1ccc(F)cc12")
1.0

IN: Could you please tell me whether Selectivity quotient recorded for O=C1NS(=O)(=O)CC12c1cc(F)ccc1-c1ccc(F)cc12 is less than 2?
OUT: 0.0

IN: Determine whether this compound shows Selectivity quotient lower than 2 (ties excluded): O=C1NS(=O)(=O)CC12c1ccccc1-c1ccc(Cl)cc12 (stereo unspecified)
OUT: 0.0

IN: Problem: For the compound O=C1CC2(c3ccccc3-c3ccc(F)cc32)S(=O)(=O)N1 (stereo unspecified) , is Selectivity quotient under 2?
OUT: 1.0

IN: Field: below-cutoff. Rule: recorded Selectivity quotient strictly less than 2. Subject: O=C1NC(=O)C2(N1)c1cc(F)ccc1-c1ccc(F)cc12
OUT: 1.0

IN: State whether 2 exceeds Selectivity quotient recorded for O=C1NS(=O)(=O)CC12c1ccccc1-c1ccccc12 .
OUT: 0.0

IN: Please let me know if O=C1CC2(c3ccccc3-c3ccccc32)S(=O)(=O)N1 shows Selectivity quotient below 2.
OUT: 1.0

IN: Dear colleague, could you confirm whether Selectivity quotient of O=C1CC2(c3ccccc3-c3ccc(Cl)cc32)S(=O)(=O)N1 (stereo unspecified) falls below 2? Thanks.
OUT: 0.0
